Can you tell me Mean relative activity for the items I'm about to list?
System: K562 CRISPRi cells
test_protocol: Constant region variant library pooled growth screen, K562
Format: cell-based, human
experimental_parameters: sgRNA constant region variants; activity relative to the original, un-modified constant region cr995

Below: 3 molecules and their reported Mean relative activity.
cr036 (nucleic acid, listed as DNA, chemistry not fully specified) guide: GCTAAAGAGCTAAGCTGGAAACAGCATAGCAAGTTTAAATAAGGCTAGTCCGTTATCAACTTGAAAAAGTGGCACCGAGTCGGTGCT : −0.005679
cr585 (nucleic acid, listed as DNA, chemistry not fully specified) guide: GTTTAAGAGCTAAGCTGGAAACAGCATAGCAAGTTTAAATAAGGCTAGTCCGTTATCAACTTGAAAAAGTGGCTCCGAGTCGGAGCT : 1.056
cr857 (nucleic acid, listed as DNA, chemistry not fully specified) guide: GTTTAAGAGCTAAGCTGGAAACAGCATAGCAAGTTTAAATTAGGCTAGTCCGTTATCAACTTGAAAAAGTCGCACCGAGCCGGTGCT : 0.004274

Give Mean relative activity for the following molecule: cr107 (nucleic acid, listed as DNA, chemistry not fully specified) guide: GTTTAAGAGCTAAGCTGGAAACAGCATAGCAAGTTTAAATAATGCTAGTCAGTTATCAACTTGAAAAAGTGGCAACGAGTCGTTGCT
0.03837
